System: T1, human IGSF11 (VSIG3) expressed on the surface of cells (human, UniProt Q5DX21 23-431)
T1 construct: one molecule for all cell lines; the cell line is named under assay; also called IGSF11-expressing cells; HEK-OE
T1 sequence: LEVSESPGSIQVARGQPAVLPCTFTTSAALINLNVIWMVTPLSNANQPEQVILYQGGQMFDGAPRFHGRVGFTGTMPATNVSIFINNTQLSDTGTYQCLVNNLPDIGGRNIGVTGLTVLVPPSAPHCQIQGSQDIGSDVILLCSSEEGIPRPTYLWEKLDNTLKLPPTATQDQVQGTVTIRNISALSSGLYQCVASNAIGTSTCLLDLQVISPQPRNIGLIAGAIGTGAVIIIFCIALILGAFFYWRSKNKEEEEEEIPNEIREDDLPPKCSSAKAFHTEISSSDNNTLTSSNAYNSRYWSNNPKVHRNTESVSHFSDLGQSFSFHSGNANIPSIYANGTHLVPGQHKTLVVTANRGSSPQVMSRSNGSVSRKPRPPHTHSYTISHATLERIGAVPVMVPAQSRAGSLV
Assay Explanation: FACS, IgG1 format, recombinant HEK cells expressing IGSF11 (HEK-OE)
pEC50: −log10 of the molar value.
Items are presented alongside their recorded pEC50.
Observable: pEC50

Binder	Observed
A-026 (human IgG1 format) (antibody, V domains shown, human IgG1 format) VH: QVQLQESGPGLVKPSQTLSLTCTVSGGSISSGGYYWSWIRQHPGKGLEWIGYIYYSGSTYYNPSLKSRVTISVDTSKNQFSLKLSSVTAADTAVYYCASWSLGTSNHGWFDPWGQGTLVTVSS VL: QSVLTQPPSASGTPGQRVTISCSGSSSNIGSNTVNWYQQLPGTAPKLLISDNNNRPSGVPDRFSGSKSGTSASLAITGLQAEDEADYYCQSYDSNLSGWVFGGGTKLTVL	< 7.30
A-013 (human IgG1 format) (antibody, V domains shown, human IgG1 format) VH: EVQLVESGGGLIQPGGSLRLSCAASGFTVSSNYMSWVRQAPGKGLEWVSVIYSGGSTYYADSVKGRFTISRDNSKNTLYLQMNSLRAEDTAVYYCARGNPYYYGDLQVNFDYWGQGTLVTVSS VL: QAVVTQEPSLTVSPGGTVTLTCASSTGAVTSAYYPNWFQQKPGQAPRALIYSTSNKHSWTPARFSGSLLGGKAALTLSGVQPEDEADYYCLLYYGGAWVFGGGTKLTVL	7.30 to 8.00
A-035 (human IgG1 format) (antibody, V domains shown, human IgG1 format) VH: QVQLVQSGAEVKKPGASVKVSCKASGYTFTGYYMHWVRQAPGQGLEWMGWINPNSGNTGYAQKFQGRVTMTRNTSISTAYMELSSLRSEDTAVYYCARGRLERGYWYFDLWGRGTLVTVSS VL: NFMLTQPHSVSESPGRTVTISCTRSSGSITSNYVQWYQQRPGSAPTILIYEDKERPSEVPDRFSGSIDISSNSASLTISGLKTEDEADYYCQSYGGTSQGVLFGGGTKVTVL	< 7.30
A-011 (human IgG1 format) (antibody, V domains shown, human IgG1 format) VH: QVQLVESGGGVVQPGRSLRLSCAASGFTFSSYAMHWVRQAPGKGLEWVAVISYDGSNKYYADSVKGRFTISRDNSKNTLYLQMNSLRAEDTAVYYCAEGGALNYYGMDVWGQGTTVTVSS VL: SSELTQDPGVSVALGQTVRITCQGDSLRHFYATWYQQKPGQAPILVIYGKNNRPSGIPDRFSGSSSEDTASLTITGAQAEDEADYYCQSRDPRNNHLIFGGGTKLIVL	< 7.30
